Provenance of the data: patent US20210253720A1

# TESTED_ON: T1, ALK2-FC (UniProt Q04771 21-123, limits assumed)
# T1 construct: Only the embodiments speak of 'human ALK2'; not shown: Fc part
# T1 sequence (looked up): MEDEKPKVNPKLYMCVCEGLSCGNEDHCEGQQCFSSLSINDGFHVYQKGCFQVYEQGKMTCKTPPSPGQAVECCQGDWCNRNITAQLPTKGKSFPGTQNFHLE
# PROCEDURE_TEXT: BLI, ForteBio Octet RED384; monovalent fAB-FH against ALK2-FC
ENDPOINT_NAME: koff (s⁻¹)
# output: bare number, implied unit s⁻¹

# input I am curious: what koff value has been reported for Antibody 8, monovalent fAB in fAB-FH format (Fab, V domains shown, also called Anti-ALK2 fAB) VH: EVQLLESGGGLVQPGGSLRLSCAASGFTFSDYAMHWVRQAPGKGLEWVSSIFYSGSNTYYADSVKGRFTISRDNSKNTLYLQMNSLRAEDTAVYYCARPKSYASGPFAYWGQGTLVTVSS VL: DIELTQPPSVSVSPGQTASITCSGDALRYYIAHWYQQKPGQAPVLVIYYNNNRPSGIPERFSGSNSGNTATLTISGTQAEDEADYYCQSYGPGSVVFGGGTKLTVLG ?
# output 0.00576
